target: HLA-A*68:02; test: IEDB peptide-MHC binding, purified MHC/competitive/radioactivity; filed as Kd, often an IC50 or EC50 that approximates it; bounds were set here for any values at or beyond the usual limits of such assays; conditions: source organism: Hepacivirus hominis
pKd: −log10 of the molar value.

>  <ITEM_SEQUENCE>
VLSDFRTWL

>  <pKd>
5.28

$$$$

----------
biological target: HLA-B*83:01; test: IEDB peptide-MHC binding, purified MHC/competitive/fluorescence; filed as Kd, often an IC50 or EC50 that approximates it; bounds were set here for any values at or beyond the usual limits of such assays; settings: source organism: Homo sapiens
pKd: −log10 of the molar value.

>  <ITEM_SEQUENCE>
TFMDHVLRY

>  <pKd>
≤ 5.30

$$$$
